Attribution: the Human Domainome abundance scans (Beltran et al. 2025)

B1: Unconventional myosin-Ie, residues 1051 to 1108; numbered along this chain, Q12965 (parent)
chain: PQVPQCKALYAYDAQDTDELSFNANDIIDIIKEDPSGWWTGRLRGKQGLFPNNYVTKI

# Variants of: B1
# Run Description: abundance fitness (aPCA) (normalised: wild type 0, dead -1); higher = more abundant; growth selection in yeast, the domain comes from the species named
# Condition Parameters: Homo sapiens
# Lookup of reported abundance fitness keyed by entry
Keep it simple and answer with nothing but the number.

Completed entries (count: 5):
>>> obs_value("E33L")
-0.343
>>> obs_value("S36M")
-0.284
>>> obs_value("N52Y")
-0.209
>>> obs_value("P35M")
-0.075
>>> obs_value("D34S")
-0.126

Next variant, abundance fitness to be filled in.
So, Q47L ? Its abundance fitness was -0.194
